Where do these numbers come from? They come from ChEMBL document CHEMBL2375292.

In this section we review reported pIC50 values for a set of compounds.
- measured-on: Monoglyceride lipase (Homo sapiens, UniProt Q99685)
- Sequence (Q99685 whole entry): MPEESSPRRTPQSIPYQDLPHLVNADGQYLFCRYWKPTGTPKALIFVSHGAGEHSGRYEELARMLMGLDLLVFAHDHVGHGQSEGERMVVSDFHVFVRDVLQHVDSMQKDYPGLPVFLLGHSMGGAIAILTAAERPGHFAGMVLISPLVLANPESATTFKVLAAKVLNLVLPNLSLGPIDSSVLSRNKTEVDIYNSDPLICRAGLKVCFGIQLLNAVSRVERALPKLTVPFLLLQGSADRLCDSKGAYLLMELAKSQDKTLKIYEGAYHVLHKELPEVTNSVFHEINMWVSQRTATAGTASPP
- assay-remarks: Inhibition of MAGL (unknown origin) expressed in African green monkey COS7 cell cytosolic fraction assessed as [3H]2-AG hydrolysis to [3H]arachidonic acid after 20 mins by beta counting analysis
pIC50: −log10 of the molar value.
readout-name: pIC50

smiles-entry	data-value
COC(=O)c1cccc(-c2ccc(Cc3nnnn3C(=O)N(C)C)cc2)c1	< 6.00
CN(C)C(=O)n1nnnc1Cc1ccc(-c2cccc(C(N)=O)c2)cc1	< 6.00
CN(C)C(=O)n1nnnc1Cc1ccc(-c2ccc(CO)cc2)cc1	< 6.00

---

- measured-on: Transient receptor potential cation channel subfamily A member 1 (Rattus norvegicus)
- assay-remarks: Agonist activity at rat TRPA1 receptor expressed in HEK293 cells assessed as increase in intracellular Ca2+ concentration by spectrofluorimetric analysis relative to allyl isothiocyanate
- Format: cell-based
Listed here: items and their measured Efficacy.

smiles-entry	unit-abbrev	bound-sign	Efficacy
CN(C)C(=O)n1nnnc1Cc1ccc(-c2ccccc2)cc1	%	=	101
CN(C)C(=O)n1nnnc1Cc1ccc(-c2cccc(O)c2)cc1	%	=	35.7
Cc1cccc(-c2ccc(Cc3nnn(C(=O)N(C)C)n3)cc2)c1	%	=	187
CC(=O)c1cccc(-c2ccc(Cc3nnn(C(=O)N(C)C)n3)cc2)c1	%	<	10
CN(CCCCc1ccccc1)C(=O)n1nnc(Cc2ccc(-c3ccccc3)cc2)n1	%	<	10
Cc1ccc(-c2ccc(Cc3nnnn3C(=O)N(C)C)cc2)cc1	%	=	388

---

- measured-on: Transient receptor potential cation channel subfamily A member 1 (Rattus norvegicus, UniProt Q6RI86)
- Sequence (Q6RI86 whole entry): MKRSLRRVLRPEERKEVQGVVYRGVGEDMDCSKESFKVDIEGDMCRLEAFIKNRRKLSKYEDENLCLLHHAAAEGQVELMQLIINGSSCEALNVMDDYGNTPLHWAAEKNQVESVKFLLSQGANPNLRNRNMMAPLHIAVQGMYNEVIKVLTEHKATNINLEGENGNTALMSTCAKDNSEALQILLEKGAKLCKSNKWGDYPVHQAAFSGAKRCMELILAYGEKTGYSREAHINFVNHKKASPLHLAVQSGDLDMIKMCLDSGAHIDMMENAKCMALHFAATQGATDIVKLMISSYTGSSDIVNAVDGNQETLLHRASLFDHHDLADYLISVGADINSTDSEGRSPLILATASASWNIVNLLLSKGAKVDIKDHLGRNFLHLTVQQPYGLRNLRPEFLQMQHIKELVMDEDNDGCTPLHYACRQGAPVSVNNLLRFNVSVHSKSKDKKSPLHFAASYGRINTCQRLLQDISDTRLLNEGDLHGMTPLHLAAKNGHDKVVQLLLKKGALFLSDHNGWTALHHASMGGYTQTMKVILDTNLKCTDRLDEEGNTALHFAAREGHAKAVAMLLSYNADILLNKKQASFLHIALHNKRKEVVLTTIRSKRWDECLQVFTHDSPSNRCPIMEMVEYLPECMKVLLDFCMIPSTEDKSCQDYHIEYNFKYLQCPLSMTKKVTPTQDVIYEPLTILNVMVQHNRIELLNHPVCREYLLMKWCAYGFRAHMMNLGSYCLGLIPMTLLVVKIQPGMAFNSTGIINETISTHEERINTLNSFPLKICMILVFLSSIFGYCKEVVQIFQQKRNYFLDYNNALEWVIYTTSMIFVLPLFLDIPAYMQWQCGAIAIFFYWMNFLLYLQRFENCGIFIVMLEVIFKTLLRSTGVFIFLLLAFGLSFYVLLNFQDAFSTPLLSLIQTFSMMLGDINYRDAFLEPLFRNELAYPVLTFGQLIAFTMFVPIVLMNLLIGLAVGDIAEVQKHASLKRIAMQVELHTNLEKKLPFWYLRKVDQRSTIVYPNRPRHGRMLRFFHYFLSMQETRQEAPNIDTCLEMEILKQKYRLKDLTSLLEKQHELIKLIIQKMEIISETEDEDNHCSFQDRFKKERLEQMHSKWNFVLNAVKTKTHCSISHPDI
- assay-remarks: Antagonist activity at rat TRPA1 receptor expressed in HEK293 cells assessed as inhibition of allyl isothiocyanate-induced intracellular Ca2+ elevation incubated for 5 mins prior to allyl isothiocyanate-stimulation by spectrofluorimetric analysis
pIC50: −log10 of the molar value.

smiles-entry	pIC50
COC(=O)c1cccc(-c2ccc(Cc3nnn(C(=O)N(C)C)n3)cc2)c1	4.04
CN(C)C(=O)n1nnc(Cc2ccc(-c3cccc(O)c3)cc2)n1	4.00
COC(=O)c1cccc(-c2ccc(Cc3nnnn3C(=O)N(C)C)cc2)c1	4.00
CN(C)C(=O)n1nnc(Cc2ccc(-c3cccc(C(N)=O)c3)cc2)n1	4.08
CN(Cc1ccc2ccccc2c1)C(=O)n1nnnc1Cc1ccc(-c2ccccc2)cc1	4.82

---

- measured-on: TRPA1 (Rattus norvegicus)
- assay-remarks: Agonist activity at GDH-tagged rat TRPA1 receptor expressed in HEK293F cells assessed as increase in intracellular Ca2+ concentration by Fluo-4 spectrofluorimetric assay
pEC50: −log10 of the molar value.

smiles-entry	pEC50
CN(C(=O)n1nnc(Cc2ccc(-c3ccccc3)cc2)n1)C1CCCCC1	6.82

---

- measured-on: Transient receptor potential cation channel subfamily A member 1 (Rattus norvegicus, UniProt Q6RI86)
- assay-remarks: Agonist activity at rat TRPA1 receptor expressed in HEK293 cells assessed as increase in intracellular Ca2+ concentration by spectrofluorimetric analysis
pEC50: −log10 of the molar value.

smiles-entry	pEC50
CN(C)C(=O)n1nnnc1Cc1ccc(-c2ccc(O)cc2)cc1	4.66
CN(C(=O)n1nnc(Cc2ccc(-c3ccccc3)cc2)n1)C1CCCCC1	6.82
CN(C)C(=O)n1nnnc1Cc1ccc(-c2cccc(C(N)=O)c2)cc1	4.30
O=C(N1CCCCC1)n1nnc(Cc2ccc(-c3ccccc3)cc2)n1	5.43
CN(CCCCc1ccccc1)C(=O)n1nnnc1Cc1ccc(-c2ccccc2)cc1	4.70
Cc1ccc(-c2ccc(Cc3nnnn3C(=O)N(C)C)cc2)cc1	4.71
CN(Cc1ccc2ccccc2c1)C(=O)n1nnnc1Cc1ccc(-c2ccccc2)cc1	4.87
CN(C)C(=O)n1nnnc1Cc1ccc(-c2ccccc2O)cc1	4.22
Cc1cccc(-c2ccc(Cc3nnnn3C(=O)N(C)C)cc2)c1	4.48
CN(C)C(=O)n1nnc(Cc2ccc(-c3ccccc3O)cc2)n1	4.27
Cc1cccc(-c2ccc(Cc3nnn(C(=O)N(C)C)n3)cc2)c1	4.82
Cc1ccccc1-c1ccc(Cc2nnnn2C(=O)N(C)C)cc1	4.31
CN(C)C(=O)n1nnc(Cc2ccc(-c3ccc(O)cc3)cc2)n1	4.84
O=C(N1CCCCC1)n1nnnc1Cc1ccc(-c2ccccc2)cc1	5.19
CN(C(=O)n1nnnc1Cc1ccc(-c2ccccc2)cc1)C1CCCCC1	5.31
CN(C)C(=O)n1nnc(Cc2ccc(-c3ccccc3)cc2)n1	4.70
CN(C)C(=O)n1nnnc1Cc1ccc(-c2cccc(O)c2)cc1	4.57
CN(C)C(=O)n1nnnc1Cc1ccc(-c2ccc(CO)cc2)cc1	4.62
Cc1ccc(-c2ccc(Cc3nnn(C(=O)N(C)C)n3)cc2)cc1	4.99
Cc1ccccc1-c1ccc(Cc2nnn(C(=O)N(C)C)n2)cc1	4.80
CN(C)C(=O)n1nnnc1Cc1ccc(-c2ccccc2)cc1	4.57
CN(C)C(=O)n1nnc(Cc2ccc(-c3ccc(CO)cc3)cc2)n1	4.61

---

- measured-on: Transient receptor potential cation channel subfamily V member 1 (Homo sapiens)
- Sequence (Q8NER1 whole entry): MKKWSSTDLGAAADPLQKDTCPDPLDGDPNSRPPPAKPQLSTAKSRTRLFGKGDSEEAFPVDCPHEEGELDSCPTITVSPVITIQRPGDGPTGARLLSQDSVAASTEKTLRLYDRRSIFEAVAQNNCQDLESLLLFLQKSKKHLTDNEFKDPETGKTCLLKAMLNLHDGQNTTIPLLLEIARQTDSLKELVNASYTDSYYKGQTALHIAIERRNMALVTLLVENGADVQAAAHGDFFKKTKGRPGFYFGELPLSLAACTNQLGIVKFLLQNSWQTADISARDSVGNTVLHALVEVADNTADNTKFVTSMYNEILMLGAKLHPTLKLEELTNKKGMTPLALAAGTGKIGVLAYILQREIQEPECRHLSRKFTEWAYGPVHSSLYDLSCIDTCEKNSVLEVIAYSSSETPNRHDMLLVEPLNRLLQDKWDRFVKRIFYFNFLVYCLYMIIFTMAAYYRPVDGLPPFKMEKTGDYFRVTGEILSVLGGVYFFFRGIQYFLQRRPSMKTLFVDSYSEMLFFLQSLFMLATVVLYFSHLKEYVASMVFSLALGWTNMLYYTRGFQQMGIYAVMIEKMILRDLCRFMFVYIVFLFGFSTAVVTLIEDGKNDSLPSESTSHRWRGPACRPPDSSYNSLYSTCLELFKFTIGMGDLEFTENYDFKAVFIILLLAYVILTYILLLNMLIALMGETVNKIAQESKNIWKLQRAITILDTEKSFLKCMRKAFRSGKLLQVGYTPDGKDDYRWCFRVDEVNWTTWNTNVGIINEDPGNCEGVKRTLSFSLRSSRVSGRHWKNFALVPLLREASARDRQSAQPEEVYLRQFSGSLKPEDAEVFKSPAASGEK
- assay-remarks: Antagonist activity at human TRPV1 receptor expressed in HEK293 cells assessed as inhibition of capsaicin-induced intracellular Ca2+ elevation incubated for 5 mins prior to capsaicin-stimulation by spectrofluorimetric analysis

smiles-entry	measured-on	IC50
CN(C)C(=O)n1nnnc1Cc1ccc(-c2ccc(O)cc2)cc1	Transient receptor potential cation channel subfamily V member 1 (Homo sapiens)	> 100 µM
Cc1ccccc1-c1ccc(Cc2nnn(C(=O)N(C)C)n2)cc1	Transient receptor potential cation channel subfamily V member 1 (Homo sapiens)	> 100 µM
Cc1ccc(-c2ccc(Cc3nnnn3C(=O)N(C)C)cc2)cc1	Transient receptor potential cation channel subfamily V member 1 (Homo sapiens)	> 100 µM
Cc1ccccc1-c1ccc(Cc2nnnn2C(=O)N(C)C)cc1	Transient receptor potential cation channel subfamily V member 1 (Homo sapiens)	> 100 µM
CN(Cc1ccc2ccccc2c1)C(=O)n1nnc(Cc2ccc(-c3ccccc3)cc2)n1	Transient receptor potential cation channel subfamily V member 1 (Homo sapiens)	4.5 µM
CN(C)C(=O)n1nnnc1Cc1ccc(-c2ccc(CO)cc2)cc1	Transient receptor potential cation channel subfamily V member 1 (Homo sapiens)	> 100 µM
CN(CCCCc1ccccc1)C(=O)n1nnc(Cc2ccc(-c3ccccc3)cc2)n1	Transient receptor potential cation channel subfamily V member 1 (Homo sapiens)	47.6 µM
Cc1cccc(-c2ccc(Cc3nnnn3C(=O)N(C)C)cc2)c1	Transient receptor potential cation channel subfamily V member 1 (Homo sapiens)	> 100 µM
COC(=O)c1cccc(-c2ccc(Cc3nnnn3C(=O)N(C)C)cc2)c1	Transient receptor potential cation channel subfamily V member 1 (Homo sapiens)	> 100 µM
CN(C)C(=O)n1nnc(Cc2ccc(-c3ccccc3)cc2)n1	Transient receptor potential cation channel subfamily V member 1 (Homo sapiens)	31.3 µM
CN(CCCCc1ccccc1)C(=O)n1nnnc1Cc1ccc(-c2ccccc2)cc1	Transient receptor potential cation channel subfamily V member 1 (Homo sapiens)	7.1 µM

---

- measured-on: Fatty-acid amide hydrolase 1 (Rattus norvegicus)
- Sequence (P97612 whole entry): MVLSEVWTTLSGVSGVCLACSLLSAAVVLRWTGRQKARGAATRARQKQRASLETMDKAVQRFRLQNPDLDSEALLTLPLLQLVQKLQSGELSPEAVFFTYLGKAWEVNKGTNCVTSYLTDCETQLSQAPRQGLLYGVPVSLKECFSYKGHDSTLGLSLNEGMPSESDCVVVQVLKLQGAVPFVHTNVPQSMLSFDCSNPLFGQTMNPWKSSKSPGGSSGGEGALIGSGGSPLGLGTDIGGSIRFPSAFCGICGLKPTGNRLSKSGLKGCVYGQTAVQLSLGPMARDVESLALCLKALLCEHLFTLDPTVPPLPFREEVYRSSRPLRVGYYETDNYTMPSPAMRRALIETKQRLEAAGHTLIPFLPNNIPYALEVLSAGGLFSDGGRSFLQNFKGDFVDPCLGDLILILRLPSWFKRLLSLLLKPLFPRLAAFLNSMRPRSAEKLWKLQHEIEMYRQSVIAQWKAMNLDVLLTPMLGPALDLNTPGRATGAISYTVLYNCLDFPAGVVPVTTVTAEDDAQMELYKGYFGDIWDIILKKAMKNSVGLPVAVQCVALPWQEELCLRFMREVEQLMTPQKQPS
- assay-remarks: Inhibition of FAAH in rat brain membranes assessed as [14C]AEA hydrolysis to [14C]Ethanolamine after 30 mins by scintillation counting analysis

smiles-entry	unit-abbrev	IC50
CN(C)C(=O)n1nnnc1Cc1ccc(-c2cccc(C(N)=O)c2)cc1	nM	11
CN(C)C(=O)n1nnc(Cc2ccc(-c3cccc(CO)c3)cc2)n1	nM	10.7
O=C(N1CCCCC1)n1nnc(Cc2ccc(-c3ccccc3)cc2)n1	nM	68.1
CN(Cc1ccc2ccccc2c1)C(=O)n1nnc(Cc2ccc(-c3ccccc3)cc2)n1	nM	16.9
CN(C)C(=O)n1nnc(Cc2ccc(-c3cccc(C(N)=O)c3)cc2)n1	nM	7.1
Cc1ccccc1-c1ccc(Cc2nnn(C(=O)N(C)C)n2)cc1	nM	51.7
